test system: HS 578T breast; experiment: NCI tumour cell line growth inhibition, 48 h

{"compound": "CC(=O)[C@H]1[C@@H](OCc2ccccc2)O[N+]([O-])=C(C)[C@@H]1c1ccccc1", "relation_symbol": "=", "TGI (µM)": 72.4}
{"compound": "COc1ccc(C(=O)/C=C/c2ccc(OCC#N)cc2)cc1OC", "relation_symbol": ">", "TGI (µM)": 100}
{"compound": "O=Cc1c[nH]c2ccc(-c3csc4ccccc34)cc12", "relation_symbol": "=", "TGI (µM)": 9.55}
{"compound": "CC(=O)Nc1c(I)c(C(=O)O)c(I)c(N(C)C(C)=O)c1I", "relation_symbol": ">", "TGI (µM)": 100}
{"compound": "C/C(=C\\CCc1ccsc1)CC/C=C(\\C)CCCN1CCN(CCO)CC1", "relation_symbol": "=", "TGI (µM)": 8.07}
{"compound": "O=S1CCN(Cc2ccc(-c3ccc4ncnc(Nc5ccc(OCc6ccccc6)c(F)c5)c4c3)o2)CC1", "relation_symbol": ">", "TGI (µM)": 25}
{"compound": "Nc1ncnc2c1ccn2CC=C(CO)CO", "relation_symbol": ">", "TGI (µM)": 100}
{"compound": "CCOC(=O)C1=C(C)NC(C)=C(C(=O)OCC)C1c1cc(Br)c(O)c(OC)c1", "relation_symbol": "=", "TGI (µM)": 9.47}
{"compound": "Nc1cccc(/C=C/CN2CCN(CCOC(c3ccccc3)c3ccccc3)CC2)c1", "relation_symbol": "=", "TGI (µM)": 48}
{"compound": "O=C(O)c1cccc(S(=O)(=O)NN2C(=O)CSC2c2ccccc2Cl)c1 (stereo not given)", "relation_symbol": ">", "TGI (µM)": 100}

====

test system: HOP-92 NSCLC; experiment: NCI tumour cell line growth inhibition, 48 h; in the data active means GI50 below about 0.43 µM; inactive means the rest
Classes used: active, inactive

{"compound": "COc1ccc(C2=NNC(c3cc(Cc4ccc(O)c(C5CC(c6ccc(OC)cc6)=NN5)c4)ccc3O)C2)cc1 (configuration not stated)", "assay_system": "HOP-92 NSCLC", "discrete_label": "inactive"}
{"compound": "Cc1ccc(NC(C(=O)c2ccccc2)c2ccccc2)cc1 (configuration not stated)", "assay_system": "HOP-92 NSCLC", "discrete_label": "inactive"}
{"compound": "CCCCCCCCn1ccc2cc(NC(=O)Cn3cc(CN4CCC(C)CC4)nn3)ccc21", "assay_system": "HOP-92 NSCLC", "discrete_label": "inactive"}
{"compound": "O=C1c2ccccc2-c2c1c1c(O)cccc1n2CCCc1ccccc1", "assay_system": "HOP-92 NSCLC", "discrete_label": "inactive"}
{"compound": "COc1ccccc1N(C(C)=O)C1=C(Cl)C(=O)c2ccccc2C1=O", "assay_system": "HOP-92 NSCLC", "discrete_label": "active"}
{"compound": "C/C(=C\\CCc1ccsc1)CC/C=C(\\C)CCCN1CCN(CCO)CC1", "assay_system": "HOP-92 NSCLC", "discrete_label": "inactive"}
{"compound": "Cc1ccc(-c2c3c(N)nc(-c4ccncc4)nc3nc3c2c(C)nn3-c2ccccc2)cc1", "assay_system": "HOP-92 NSCLC", "discrete_label": "inactive"}

====

Measured TGI accompanies every entry in the list below.
test system: HS 578T breast; assay: NCI tumour cell line growth inhibition, 48 h

{"compound": "Cc1ccc(O)c(-c2cc(-c3ccccc3)nc(/N=C\\c3ccccc3)n2)c1", "TGI": "79.8 µM"}
{"compound": "NS(=O)(=O)c1cccc(-c2cc3ccncc3cc2OCc2ccccc2)c1", "TGI": "> 18.4 µM"}
{"compound": "CCCC1=NC(C(F)(F)F)(C(F)(F)F)N=C(N2CCOCC2)O1", "TGI": "> 100 µM"}
{"compound": "COc1ccc(/C=C/c2ccnc3ccccc23)cc1", "TGI": "48.8 µM"}
{"compound": "COc1cc(CC(C)N[C@@H](C)c2ccccc2)cc(OC)c1 (stereo partly drawn)", "TGI": "> 100 µM"}
{"compound": "Oc1ccc(NCc2cc(O)ccc2O)cc1", "TGI": "> 100 µM"}
{"compound": "Nc1nc(Cl)cc(NCC2(CO)CC(c3ccccc3)C2)n1 (stereo not drawn)", "TGI": "83.8 µM"}
{"compound": "C=CCN1C(=O)/C(=C/c2ccccc2)N=C1SC1OC(COC(C)=O)C(OC(C)=O)C(OC(C)=O)C1OC(C)=O (stereo not drawn)", "TGI": "72.2 µM"}
{"compound": "CCCC(=O)n1[nH]c(=O)n(C(C)(C)C)c1=O", "TGI": "> 100 µM"}
{"compound": "CN1C(=O)CN=C(c2ccccc2F)c2cc(N=C=S)ccc21", "TGI": "> 100 µM"}
{"compound": "COc1ccc(/C=N/NS(=O)(=O)c2ccc(/C=C3\\NC(=O)N(C)C3=O)cc2)cc1", "TGI": "> 100 µM"}
{"compound": "CCc1cccc(C(C)C)c1NC1=C([n+]2ccc(C)cc2)C(=O)c2ccccc2C1=O", "TGI": "> 100 µM"}
{"compound": "NS(=O)(=O)c1ccc(N=Nc2ccc(O)c(O)c2)cc1", "TGI": "67.3 µM"}
{"compound": "CCSC1=C(C#N)C2(CCCCC2)C2=C(CC(C)(C)CC2=O)N1", "TGI": "> 100 µM"}
{"compound": "O=C(O)CN(CC(=O)O)c1ccccc1", "TGI": "> 100 µM"}
{"compound": "COC1=CCC2=C(CCN(C(=O)C3CC3)C2Cc2ccc(OC)c(O)c2)C1 (stereo not drawn)", "TGI": "> 100 µM"}
{"compound": "S=C1NCCN1C(=S)NC1CCCCC1", "TGI": "99.2 µM"}
{"compound": "CC(C)CNC(=O)c1c(NC(=O)c2ccccc2)sc2[nH]c(=O)n(-c3ccccc3)c(=O)c12", "TGI": "> 79.1 µM"}
{"compound": "CN(C)C=NCc1ccc2c(c1)OCO2", "TGI": "> 100 µM"}
{"compound": "c1ccc2c(c1)ccc1nc3ccccn3c12", "TGI": "> 100 µM"}
{"compound": "COC(=O)c1c2c(c(C)[n+]([O-])c1C)C(=O)C=C(NCc1ccc(Br)cc1)C2=O", "TGI": "8.05 µM"}
{"compound": "CCN1CCN(CC(=O)Nc2nc3ccc(NCc4ccc(C)cc4)cc3s2)CC1", "TGI": "15.9 µM"}
{"compound": "COc1ccc(N2C(=O)C(C#N)=C(SC)C(C#N)C2=O)cc1 (stereo not drawn)", "TGI": "89.8 µM"}
